# Tgt: Cdk-2/cyclin E (Homo sapiens, UniProt P24941)
# Test protocol: Recombinant kinase radioassay, Cdk-2/cyclin E
# Test parameters: ATP 15 µM, at least three independent experiments, range 0.01–100 µM
I'd be grateful if you could share measured pIC50 for these entries.
FYI, pIC50 means -log10 of a concentration in mol per litre.

Can you look up the measured pIC50 of CN1CCN(c2ccc(Nc3nc(Nc4ccc(OC(F)(F)F)cc4)c4ncn(CC5CC5)c4n3)cc2)CC1 [Compound 4h] for me?
4.74

pIC50 lookup needed for CN1CCN(c2ccc(Nc3nc(Nc4ccccc4)c4ccn(CC5CC5)c4n3)cc2)CC1 [Compound 12] , thanks.
4.33

// pIC50 lookup, key: CN1CCN(c2ccc(Nc3nc(Nc4ccc(F)c(Cl)c4)c4ncn(CC5CC5)c4n3)cc2)CC1 [Compound 4m]
4.97

Which pIC50 value belongs to CC(C)CCn1cnc2c(Nc3cccc(F)c3)nc(Nc3ccc(N4CCN(C)CC4)cc3)nc21 [Compound 5b] ?
4.68

Which pIC50 is reported for this molecule? CN1CCN(c2ccc(Nc3nc(Nc4cccc(C#N)c4)c4ncn(CC5CC5)c4n3)cc2)CC1 [Compound 4f]
4.63

What value of pIC50 has been reported for the following molecule? CCCCCn1cnc2c(Nc3ccc(F)c(F)c3)nc(Nc3ccc(N4CCN(C)CC4)cc3)nc21 [Compound 5f]
4.68

# get_value(readout='pIC50', item= CN1CCN(c2ccc(Nc3nc(Nc4cccc(Cl)c4)c4ncn(CC5CC5)c4n3)cc2)CC1 [Compound 4b] )
4.70

Query (molecule): Cc1cccc(Nc2nc(Nc3ccc(N4CCN(C)CC4)cc3)nc3c2ncn3CC2CC2)c1 [Compound 4c] ; field requested: pIC50
4.64

Request the reported pIC50 associated with CCCCCn1cnc2c(Nc3ccccc3)nc(Nc3ccc(N4CCN(C)CC4)cc3)nc21 [Compound 5d]
4.51

May I ask what pIC50 has been recorded for CN1CCN(c2ccc(Nc3nc(Nc4ccc(Cl)c(F)c4)c4ncn(CC5CC5)c4n3)cc2)CC1 [Compound 4l] ?
4.57

Find the recorded pIC50 belonging to CN1CCN(c2ccc(Nc3nc(Nc4cccc([N+](=O)[O-])c4)c4ncn(CC5CC5)c4n3)cc2)CC1 [Compound 4g] and report it.
5.25

Request the reported pIC50 associated with CCCCCCn1cnc2c(Nc3ccc(F)c(F)c3)nc(Nc3ccc(N4CCN(C)CC4)cc3)nc21 [Compound 5i]
4.32

Please look up its pIC50: CCCCCn1cnc2c(Nc3cccc(F)c3)nc(Nc3ccc(N4CCN(C)CC4)cc3)nc21 [Compound 5e]
4.72

Suppose we examine the molecule CCCCCCn1cnc2c(Nc3ccccc3)nc(Nc3ccc(N4CCN(C)CC4)cc3)nc21 [Compound 5g] ; what pIC50 value has been reported?
4.55

Requested field: pIC50. Item: CN1CCN(C(=O)c2ccc(Nc3nc(Nc4ccc(F)c(F)c4)c4ncn(CC5CC5)c4n3)cc2)CC1 [Compound 8c]
4.85

---

Give measured log10 of IC50 for each item. Keep answers brief.
# Tgt: FLT3-ITD (Homo sapiens, UniProt P36888, ITD)
# Sequence (P36888 27-993, change not shown): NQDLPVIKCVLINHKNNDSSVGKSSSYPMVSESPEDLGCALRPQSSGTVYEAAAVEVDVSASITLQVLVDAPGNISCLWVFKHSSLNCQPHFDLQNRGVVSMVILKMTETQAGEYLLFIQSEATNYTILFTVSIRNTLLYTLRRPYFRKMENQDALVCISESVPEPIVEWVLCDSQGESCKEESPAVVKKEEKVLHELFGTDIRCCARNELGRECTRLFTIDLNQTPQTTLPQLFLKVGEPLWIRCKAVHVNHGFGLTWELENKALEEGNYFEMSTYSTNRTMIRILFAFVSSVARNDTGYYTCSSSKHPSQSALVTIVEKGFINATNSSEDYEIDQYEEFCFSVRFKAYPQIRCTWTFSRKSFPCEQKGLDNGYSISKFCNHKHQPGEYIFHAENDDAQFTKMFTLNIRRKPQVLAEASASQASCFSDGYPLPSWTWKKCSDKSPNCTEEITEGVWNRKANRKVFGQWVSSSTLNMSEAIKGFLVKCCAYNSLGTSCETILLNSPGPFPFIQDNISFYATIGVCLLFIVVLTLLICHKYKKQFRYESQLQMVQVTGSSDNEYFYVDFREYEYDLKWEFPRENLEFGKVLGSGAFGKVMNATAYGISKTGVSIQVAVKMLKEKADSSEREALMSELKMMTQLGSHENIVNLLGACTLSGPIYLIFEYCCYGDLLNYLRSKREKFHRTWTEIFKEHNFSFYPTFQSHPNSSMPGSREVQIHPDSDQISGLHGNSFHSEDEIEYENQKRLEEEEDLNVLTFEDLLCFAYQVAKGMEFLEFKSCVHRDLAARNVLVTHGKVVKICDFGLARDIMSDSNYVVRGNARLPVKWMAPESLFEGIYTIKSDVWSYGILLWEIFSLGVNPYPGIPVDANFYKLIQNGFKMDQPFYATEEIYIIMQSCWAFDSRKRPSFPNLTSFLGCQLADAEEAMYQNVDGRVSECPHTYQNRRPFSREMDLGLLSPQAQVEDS
# Test protocol: Recombinant kinase radioassay, FLT3-ITD
# Format: biochemical
# Test parameters: recombinant kinase, radioassay; at least three independent experiments, range 0.01–100 µM; read-out: IC50 FLT3-ITD
Values are log10 of IC50 in µM.

Endpoint output: log10 of IC50 of CN1CCN(C(=O)c2ccc(Nc3nc(Nc4cccc(F)c4)c4ncn(CC5CC5)c4n3)cc2)CC1 . Value?
0.20

Return reported log10 of IC50; argument: CCCCCn1cnc2c(Nc3cccc(F)c3)nc(Nc3ccc(N4CCN(C)CC4)cc3)nc21
-0.30

Entry CN1CCN(c2ccc(Nc3nc(Nc4ccc(F)c(Cl)c4)c4ncn(CC5CC5)c4n3)cc2)CC1 : reported log10 of IC50 = ?
0.19

Report log10 of IC50 for CN1CCN(c2ccc(Nc3nc(Nc4ccc(Cl)c(F)c4)c4ncn(CC5CC5)c4n3)cc2)CC1 please.
0.01

Dear colleague, I am looking for the recorded log10 of IC50 of the following compound: CN1CCN(C(=O)c2ccc(Nc3nc(Nc4ccccc4)c4ncn(CC5CC5)c4n3)cc2)CC1
0.29

Which measured log10 of IC50 value corresponds to CCCCCCn1cnc2c(Nc3cccc(F)c3)nc(Nc3ccc(N4CCN(C)CC4)cc3)nc21 ?
0.36

Any idea what its log10 of IC50 is? The compound is CC(C)CCn1cnc2c(Nc3ccc(F)c(F)c3)nc(Nc3ccc(N4CCN(C)CC4)cc3)nc21
-0.10

# input compound: CN1CCN(c2ccc(Nc3nc(Nc4cccc(C(F)(F)F)c4)c4ncn(CC5CC5)c4n3)cc2)CC1 ; wanted: its log10 of IC50
0.26

Can you look up the measured log10 of IC50 of CCCCCCCCn1cnc2c(Nc3ccccc3)nc(Nc3ccc(N4CCN(C)CC4)cc3)nc21 for me?
1.31

Any idea what log10 of IC50 was measured for CN1CCN(c2ccc(Nc3nc(Nc4cccc(Cl)c4)c4ncn(CC5CC5)c4n3)cc2)CC1 ?
0.05

Entry CCOC(=O)c1ccc(Nc2nc(Nc3ccc(N4CCN(C)CC4)cc3)nc3c2ncn3CC2CC2)cc1 has what log10 of IC50?
0.06

Suppose we examine the compound Cc1cccc(Nc2nc(Nc3ccc(N4CCN(C)CC4)cc3)nc3c2ncn3CC2CC2)c1 ; what log10 of IC50 value has been reported?
0.18

// returns reported log10 of IC50 for input CN1CCN(c2ccc(Nc3nc(Nc4cccc([N+](=O)[O-])c4)c4ncn(CC5CC5)c4n3)cc2)CC1
0.10

Suppose we examine the compound CCCCCCn1cnc2c(Nc3ccccc3)nc(Nc3ccc(N4CCN(C)CC4)cc3)nc21 ; what log10 of IC50 value has been reported?
0.28

# get_value(readout='log10 of IC50', item= CN1CCN(c2ccc(Nc3nc(Nc4ccc(OC(F)(F)F)c([N+](=O)[O-])c4)c4ncn(CC5CC5)c4n3)cc2)CC1 )
0.43

Please look up its log10 of IC50: CC(C)CCn1cnc2c(Nc3cccc(F)c3)nc(Nc3ccc(N4CCN(C)CC4)cc3)nc21
-0.42

Can you look up the measured log10 of IC50 of CN1CCN(c2ccc(Nc3nc(Nc4ccc(C#N)cc4)c4ncn(CC5CC5)c4n3)cc2)CC1 for me?
-0.43

// query log10 of IC50 value for entry CN1CCN(c2ccc(Nc3nc(Nc4cccc(OC(F)(F)F)c4)c4ncn(CC5CC5)c4n3)cc2)CC1
0.37

Given CN1CCN(c2ccc(Nc3nc(Nc4cccc(C#N)c4)c4ncn(CC5CC5)c4n3)cc2)CC1 , state its recorded log10 of IC50.
-0.03

What log10 of IC50 value was documented for this compound, CN1CCN(C(=O)c2ccc(Nc3nc(Nc4ccc(F)c(F)c4)c4ncn(CC5CC5)c4n3)cc2)CC1 ?
0.26

I'd like to know its log10 of IC50. The compound in question is CN1CCN(c2ccc(Nc3nc(Nc4ccc(Cl)c(Cl)c4)c4ncn(CC5CC5)c4n3)cc2)CC1
0.40

Entry CCCCCn1cnc2c(Nc3ccccc3)nc(Nc3ccc(N4CCN(C)CC4)cc3)nc21 : reported log10 of IC50 = ?
-0.34

Which log10 of IC50 reading was recorded for the compound CCCCCCn1cnc2c(Nc3ccc(F)c(F)c3)nc(Nc3ccc(N4CCN(C)CC4)cc3)nc21 ?
0.44

---

# Tgt: FLT3-ITD (Homo sapiens, UniProt P36888, ITD)
# Test protocol: Recombinant kinase radioassay, FLT3-ITD
# Assay type: biochemical
# Test parameters: -log IC50 in molar concentration, Table S3; read-out: Experimental pIC50, CoMFA FLT3 (converted)
Measurement name: IC50 (µM)
Please state the figure in µM; there is no need to write the unit.

Fill in the recorded IC50 for this molecule, with FLT3-ITD (Homo sapiens, UniProt P36888, ITD) as test system: Clc1nc(Cl)c2[nH]cnc2n1 [Compound 1]
19.4

Form entry - test system: FLT3-ITD (Homo sapiens, UniProt P36888, ITD); read-out: IC50; molecule: Clc1nc(Cl)c2ccn(CC3CC3)c2n1 [Compound 10]
0.367

Observed IC50 on FLT3-ITD (Homo sapiens, UniProt P36888, ITD) for CN1CCN(c2ccc(Nc3nc(Nc4ccccc4)c4ccn(CC5CC5)c4n3)cc2)CC1 [Compound 12] , please.
1.54

So what IC50 did O=C(Cl)c1ccc([N+](=O)[O-])cc1 [Compound 6] get with FLT3-ITD (Homo sapiens, UniProt P36888, ITD)?
2.32

So what IC50 did CN1CCN(C(=O)c2ccc(N)cc2)CC1 [Compound 7] get with FLT3-ITD (Homo sapiens, UniProt P36888, ITD)?
1.25

Request: IC50, test system FLT3-ITD (Homo sapiens, UniProt P36888, ITD), entry Clc1nc(Cl)c2cc[nH]c2n1 [Compound 9]
0.534

Fill in the recorded IC50 for this molecule, with FLT3-ITD (Homo sapiens, UniProt P36888, ITD) as test system: Clc1nc(Nc2ccccc2)c2ccn(CC3CC3)c2n1 [Compound 11]
1.16
